The values you see were collected from ChEMBL document CHEMBL1157539.

System: Plasmodium falciparum
assay details: GSK_TCMDC: Inhibition of Plasmodium falciparum 3D7 in whole red blood cells, using parasite LDH activity as an index of growth. Test compounds present at 2uM
Format: functional
The entries below come with measured Inhibition values attached.

compound | target entity | Inhibition
O=C(NCc1cccs1)[C@H](Cc1ccccc1)Nc1ccnc(NCC2CCCCC2)n1.O=C(O)C(F)(F)F | Plasmodium falciparum | 83%
O=C(/C=C/c1ccc(Cl)c(Cl)c1)NCCC(CN1CCC(c2c[nH]c3ccccc23)CC1)c1ccccc1 (configuration not stated) | Plasmodium falciparum | 100%
N.Nc1nc2c(ncn2COC2COP(=O)(O)OC2)c(=O)[nH]1 (configuration not stated) | Plasmodium falciparum | 81%
NC(=O)c1cccc(C(=O)Nc2cccc(-c3cccc(-c4nc5cc(F)ccc5[nH]4)c3)c2)c1 | Plasmodium falciparum | 100%
CC1(C)N=C(N)N=C(N)N1c1ccc(I)cc1.Cl | Plasmodium falciparum | 92%
Cc1noc(C)c1-c1ccc2c(Nc3ccc(Cl)cc3)c(C(N)=O)cnc2c1.Cl | Plasmodium falciparum | 94%
CCCCNCc1ccc(-c2nc(CN(C(=O)Nc3cc([N+](=O)[O-])ccc3F)C3Cc4ccccc4C3)cs2)cc1.O=C(O)C(F)(F)F | Plasmodium falciparum | 87%
CCCC(CCC)n1ccc2c3c(N)nc(N)nc3ccc21.Cl | Plasmodium falciparum | 98%
Cc1[nH]c(C)c(-c2ccc(OCc3cc(F)cc(F)c3)nc2)c(=O)c1Br | Plasmodium falciparum | 98%
Cc1ccc(Cn2cnc(N3CC(C)NC(C)C3)cc2=O)cc1NC(=O)Nc1ccc(-c2ccccc2)cc1.O=C(O)C(F)(F)F (configuration not stated) | Plasmodium falciparum | 96%
NCCCN(Cc1ccc(Cl)c(Cl)c1)C(=O)Nc1ccc(Cl)c(Cl)c1 | Plasmodium falciparum | 93%
CCCC(C)Nc1nc(C)cc(N[C@@H](CC(C)C)C(=O)NC2CCCC2)n1.O=C(O)C(F)(F)F (some centres not stated) | Plasmodium falciparum | 85%
CC(C)CC(C)NC(=O)C1Cc2c([nH]c3ccc(F)cc23)C2(CCN(Cc3ccccc3)CC2)N1 (configuration not stated) | Plasmodium falciparum | 97%
O=C(Nc1cccc(CN2CCCN(CC3CC3)CC2)c1)c1ccc(Cl)c(Cl)c1.O=C(O)C(F)(F)F | Plasmodium falciparum | 92%
CN(CCO)Cc1cccc(-c2ccc(NC(=O)c3cccc(C#N)c3)cc2)c1.O=C(O)C(F)(F)F | Plasmodium falciparum | 97%
COc1cc(NC2CCCC(NCc3cn(S(=O)(=O)c4ccccc4)c4ccccc34)C2)nc2ccccc12 (configuration not stated) | Plasmodium falciparum | 100%
COc1ccc(Nc2nccc(N3CCC(NC(=O)Nc4cc(C)ccc4C)C3)n2)cc1 (configuration not stated) | Plasmodium falciparum | 91%
Cc1ccc(O)cc1Nc1ccnc2cc(-c3nccs3)ccc12.Cl | Plasmodium falciparum | 100%
CCN(CC)c1ccc(C(c2ccc(N(CC)CC)cc2)c2cccc([N+](=O)[O-])c2)cc1 | Plasmodium falciparum | 91%
CC(C)CNCc1ccc(-c2cccc(-c3nc4ccccc4[nH]3)c2)cc1.O=C(O)C(F)(F)F | Plasmodium falciparum | 99%
CCCN(CCC)CCOc1ccc(C(O)(C#CC(O)(c2ccc(OCCN(CCC)CCC)cc2)c2cccc(Cl)c2)c2cccc(Cl)c2)cc1 (configuration not stated) | Plasmodium falciparum | 100%
Cc1ccc(C2=NNC3(S2)C(=O)N(C)c2ccccc23)cc1 (configuration not stated) | Plasmodium falciparum | 82%
Br.CCCCCCCCn1c2c(c(=N)c3c1CCC3)CCC2 | Plasmodium falciparum | 99%
CC(C)CNCc1cccc(-c2ccc(CNC3CCN(Cc4ccccc4)CC3)cc2)c1.O=C(O)C(F)(F)F | Plasmodium falciparum | 100%
CN(Cc1ccc(C#N)cc1)C1CCN(c2cc(NC(=O)c3cccc(F)c3)ccn2)CC1.O=C(O)C(F)(F)F | Plasmodium falciparum | 83%
COc1cc2s/c(=N\C(=O)c3cccc([N+](=O)[O-])c3)n(C)c2cc1OC | Plasmodium falciparum | 92%
CN(C)C(CNC(=O)c1cc(-c2ccncc2)c(-c2ccc(NC(=O)Nc3ccccc3)cc2)o1)c1ccccc1.O=C(O)C(F)(F)F (configuration not stated) | Plasmodium falciparum | 100%
O=C(c1ccc([N+](=O)[O-])o1)N1CCC(Cc2ccc(C(F)(F)F)cc2)CC1 | Plasmodium falciparum | 100%
Cc1ccc(NC(=O)c2ccc(N3CCN(c4ccncc4)CC3)cn2)cc1F.O=C(O)C(F)(F)F | Plasmodium falciparum | 98%
Cl.N=C(NCCc1ccccc1Cl)c1ccc2ccccc2c1 | Plasmodium falciparum | 88%
CC(C)NCc1ccc(-c2ccc(-c3nc4cc(C(F)(F)F)ccc4[nH]3)cc2)cc1.O=C(O)C(F)(F)F | Plasmodium falciparum | 100%
CC1CN(Cc2cccc(F)c2)CCN1c1ccc(NC(=O)c2ccc(F)cc2)cc1.O=C(O)C(F)(F)F (configuration not stated) | Plasmodium falciparum | 96%
O=C(Nc1ccc(Cl)cc1)N1CCN(C2CCCCC2)CC1 | Plasmodium falciparum | 93%
Cc1ccc(CNC(=O)[C@H](CCCN)Nc2cc(C)nc(NCC3CCCCC3)n2)cc1.O=C(O)C(F)(F)F | Plasmodium falciparum | 90%
Cl.O=C(Nc1ccc(Cl)cc1)Nc1cccc(-c2cc(CNCCc3ccccc3)oc2-c2ccncc2)c1 | Plasmodium falciparum | 100%
CC(C)(C)n1nnnc1C(c1cccnc1)N(Cc1ccccc1)Cc1ccc(Cl)cc1 (configuration not stated) | Plasmodium falciparum | 96%
COc1cc(NC(=O)/C=C/c2cc(F)cc(F)c2F)cc(OCCN2CCN(CCN3CCOCC3)CC2)c1.O=C(O)C(=O)O | Plasmodium falciparum | 100%
